# TARGET ENTITY: UniProt:P04150
# Type: functional
# Description: Antagonist activity at GR assessed as inhibition of dexamethasone-induced GRE activation
READOUT NAME: IC50 (nM)

{"COMPOUND STRUCTURE STRING": "COc1c(O)ccc2c1-c1ccc3c(c1/C(=C/c1ccc(O)cc1)O2)C(C)=CC(C)(C)N3", "RESULT": 0.4}
{"COMPOUND STRUCTURE STRING": "COc1c(O)ccc2c1-c1ccc3c(c1/C(=C/c1cccc(OC(F)(F)F)c1)O2)C(C)=CC(C)(C)N3", "RESULT": 1.9}
{"COMPOUND STRUCTURE STRING": "COc1c(O)ccc2c1-c1ccc3c(c1/C(=C/c1ccccc1-c1ccccc1)O2)C(C)=CC(C)(C)N3", "RESULT": 3.6}
{"COMPOUND STRUCTURE STRING": "COc1c(O)ccc2c1-c1ccc3c(c1/C(=C/c1cccc(C(F)(F)F)c1)O2)C(C)=CC(C)(C)N3", "RESULT": 2.5}
{"COMPOUND STRUCTURE STRING": "COc1c(O)ccc2c1-c1ccc3c(c1/C(=C/c1ccc(F)cc1S(=O)(=O)N1CCCCC1)O2)C(C)=CC(C)(C)N3", "RESULT": 6.6}
{"COMPOUND STRUCTURE STRING": "COc1c(O)ccc2c1-c1ccc3c(c1/C(=C/c1cccc(O)c1)O2)C(C)=CC(C)(C)N3", "RESULT": 4.7}

[I] COc1c(O)ccc2c1-c1ccc3c(c1/C(=C/c1cccc(-c4ccsc4)c1)O2)C(C)=CC(C)(C)N3
[II] COc1c(O)ccc2c1-c1ccc3c(c1/C(=C/c1cccc(C(F)(F)F)c1C)O2)C(C)=CC(C)(C)N3
Query string: Form: Entry with minimum IC50 (choose one): I / II Write down the label of the entry you select.
Result string: I

----------
pKi: −log10 of the molar value.
// pKi collected for Mineralocorticoid receptor (Homo sapiens, UniProt P08235)
READOUT NAME: pKi

[I] COCOCc1cc(F)ccc1/C=C1\Oc2ccc(O)c(OC)c2-c2ccc3c(c21)C(C)=CC(C)(C)N3
[II] COc1c(O)ccc2c1-c1ccc3c(c1/C(=C/c1ccc(F)cc1CO)O2)C(C)=CC(C)(C)N3
Query string: Pick the one with the larger pKi: I vs II Mark your answer with the label of the selected entry.
Result string: I
(I: 6.37, II: 5.96)

----------
# TARGET ENTITY: Glucocorticoid receptor (Homo sapiens, UniProt P04150)
# Format: functional
# Description: Activity at GR assessed as repression of TNFalpha and IL 1-beta induced E-selectin response
READOUT NAME: IC50 (nM)

Solved entries (count: 3):
{"COMPOUND STRUCTURE STRING": "COc1c(O)ccc2c1-c1ccc3c(c1/C(=C/c1ccccc1F)O2)C(C)=CC(C)(C)N3", "IC50 / nM": 1.4}
{"COMPOUND STRUCTURE STRING": "COc1c(O)ccc2c1-c1ccc3c(c1/C(=C/c1ccccc1Cl)O2)C(C)=CC(C)(C)N3", "IC50 / nM": 18}
{"COMPOUND STRUCTURE STRING": "COc1c(O)ccc2c1-c1ccc3c(c1/C(=C/c1ccc(O)cc1)O2)C(C)=CC(C)(C)N3", "IC50 / nM": 1}

[1] COc1c(O)ccc2c1-c1ccc3c(c1/C(=C/c1ccccc1C)O2)C(C)=CC(C)(C)N3
[2] COc1c(O)ccc2c1-c1ccc3c(c1/C(=C/c1ccc(C)cc1)O2)C(C)=CC(C)(C)N3
Query string: Which value of IC50 is smaller, the one for 1 or the one for 2 ? Give the label under which the chosen entry appears.
Result string: 1

----------
# TARGET ENTITY: Glucocorticoid receptor (Homo sapiens, UniProt P04150)
# Format: functional
READOUT NAME: IC50 (µM)

[a] COc1c(O)ccc2c1-c1ccc3c(c1/C(=C/c1cccc(C)n1)O2)C(C)=CC(C)(C)N3
[b] COc1c(O)ccc2c1-c1ccc3c(c1/C(=C/c1cccc(C(F)(F)F)c1C)O2)C(C)=CC(C)(C)N3
[c] COc1c(O)ccc2c1-c1ccc3c(c1/C(=C/c1cccc(Oc4ccccc4)c1)O2)C(C)=CC(C)(C)N3
[d] COc1c(O)ccc2c1-c1ccc3c(c1/C(=C/c1cccc(O)c1)O2)C(C)=CC(C)(C)N3
Query string: Ranking by IC50 (descending) is requested for the entries above. List the labels in the requested order.
Result string: c, b, a, d

[1] COc1c(O)ccc2c1-c1ccc3c(c1/C(=C/c1ccccc1-c1ccccc1)O2)C(C)=CC(C)(C)N3
[2] COc1c(O)ccc2c1-c1ccc3c(c1/C(=C/c1cccc(-c4ccccc4)c1)O2)C(C)=CC(C)(C)N3
[3] COc1c(O)ccc2c1-c1ccc3c(c1/C(=C/c1cccc(-c4ccsc4)c1)O2)C(C)=CC(C)(C)N3
[4] COc1c(O)ccc2c1-c1ccc3c(c1/C(=C/c1ccc(OC(F)(F)F)cc1)O2)C(C)=CC(C)(C)N3
Query string: Order the items by recorded IC50; the first position goes to the largest value. # format: label list in the order the request specifies
Result string: 4, 2, 1, 3

[1] COc1c(O)ccc2c1-c1ccc3c(c1/C(=C/c1cccc(OC(F)(F)F)c1)O2)C(C)=CC(C)(C)N3
[2] COc1c(O)ccc2c1-c1ccc3c(c1/C(=C/c1ccc(Cl)cc1)O2)C(C)=CC(C)(C)N3
Query string: Field: lower recorded IC50 (choose 1 or 2 ) Output the label that corresponds to your choice.
Result string: 1
(1: 0.0047 µM, 2: 0.012 µM)

[a] COc1c(O)ccc2c1-c1ccc3c(c1/C(=C/c1cccc(-c4cccnc4)c1)O2)C(C)=CC(C)(C)N3
[b] COc1ccc(/C=C2\Oc3ccc(O)c(OC)c3-c3ccc4c(c32)C(C)=CC(C)(C)N4)cc1
Query string: Hey, between a and b which has a smaller measured IC50? I would appreciate it if you answered with the label of your choice.
Result string: a
(a: 0.0036 µM, b: 0.01 µM)

----------
# TARGET ENTITY: Glucocorticoid receptor (Homo sapiens, UniProt P04150)
# Assay type: functional
READOUT NAME: IC50 (nM)

{"COMPOUND STRUCTURE STRING": "COc1c(O)ccc2c1-c1ccc3c(c1/C(=C/c1cccc(-c4cccnc4)c1)O2)C(C)=CC(C)(C)N3", "IC50 (nM)": 0.7}

[a] COc1c(O)ccc2c1-c1ccc3c(c1/C(=C/c1ccccc1Cl)O2)C(C)=CC(C)(C)N3
[b] COc1c(O)ccc2c1-c1ccc3c(c1/C(=C/c1ccc(C)cc1)O2)C(C)=CC(C)(C)N3
Query string: Higher IC50 between a and b ? Indicate which entry you chose by stating its label.
Result string: a
(a: 24 nM, b: 12 nM)

----------
# TARGET ENTITY: Glucocorticoid receptor (Homo sapiens)
# Sequence (P04150 whole entry): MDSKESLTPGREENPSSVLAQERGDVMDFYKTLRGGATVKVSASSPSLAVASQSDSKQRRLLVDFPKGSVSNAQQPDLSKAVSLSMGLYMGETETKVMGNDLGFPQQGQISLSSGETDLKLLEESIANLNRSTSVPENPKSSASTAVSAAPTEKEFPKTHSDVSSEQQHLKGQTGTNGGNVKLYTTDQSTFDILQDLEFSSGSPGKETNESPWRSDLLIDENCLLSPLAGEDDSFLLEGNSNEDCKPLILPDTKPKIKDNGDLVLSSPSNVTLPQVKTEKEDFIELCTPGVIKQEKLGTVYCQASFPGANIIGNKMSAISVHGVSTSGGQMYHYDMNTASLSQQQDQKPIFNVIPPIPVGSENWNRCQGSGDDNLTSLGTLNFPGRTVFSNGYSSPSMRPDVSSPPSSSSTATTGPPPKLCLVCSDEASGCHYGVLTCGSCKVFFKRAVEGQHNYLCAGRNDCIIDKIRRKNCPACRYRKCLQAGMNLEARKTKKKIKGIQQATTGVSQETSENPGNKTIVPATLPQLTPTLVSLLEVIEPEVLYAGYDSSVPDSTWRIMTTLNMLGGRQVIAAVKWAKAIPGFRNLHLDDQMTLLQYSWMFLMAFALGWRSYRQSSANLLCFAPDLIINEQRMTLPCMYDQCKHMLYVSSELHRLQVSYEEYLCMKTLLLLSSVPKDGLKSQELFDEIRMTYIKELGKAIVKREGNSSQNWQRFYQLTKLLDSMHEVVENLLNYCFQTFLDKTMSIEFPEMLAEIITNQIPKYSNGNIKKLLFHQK
READOUT NAME: Ki (nM)

// below: answered molecules
{"COMPOUND STRUCTURE STRING": "COc1c(O)ccc2c1-c1ccc3c(c1/C(=C/c1ccc(F)cc1S(=O)(=O)N1CCCCC1)O2)C(C)=CC(C)(C)N3", "Ki (nM)": 94}
{"COMPOUND STRUCTURE STRING": "COc1c(O)ccc2c1-c1ccc3c(c1/C(=C/c1ccc(-c4ccccc4)cc1)O2)C(C)=CC(C)(C)N3", "Ki (nM)": 4.4}

[P] COc1c(O)ccc2c1-c1ccc3c(c1/C(=C/c1ccccc1Cl)O2)C(C)=CC(C)(C)N3
[Q] COc1c(O)ccc2c1-c1ccc3c(c1/C(=C/c1ccccc1C)O2)C(C)=CC(C)(C)N3
Query string: Higher Ki between P and Q ? Answer with the label corresponding to your selection.
Result string: P

This collection of values is drawn from ChEMBL document CHEMBL1149550.
